The measured values listed here are drawn from the METLIN SMRT retention time set (Domingo-Almenara et al. 2019).

assay: gradient 5% acetonitrile 3 min, to 50% in 2 min, to 85% in 15 min, held 3 min, 100 µL/min; settings: column: Zorbax Extend-C18 2.1 x 50 mm; eluents: water / acetonitrile, 0.1% formic acid
Result type: RP-LC retention time (s)

Some molecules with recorded RP-LC retention time:
Entry COc1ccc(-c2nnc(COc3cccc(NC(=O)C4CCC4)c3)o2)cc1 — recorded RP-LC retention time = 901

Entry CCCCOc1ccc(C(=O)Nc2cc(C)no2)cc1 — recorded RP-LC retention time = 908

Entry COc1cc(OC)cc(-c2nc(-c3ccc4nnn(C(C)C)c4c3)no2)c1 — recorded RP-LC retention time = 1160

Entry Cc1ccc(NC(=O)N(CCc2cccs2)Cc2cccnc2)cc1C — recorded RP-LC retention time = 649

Entry CC(C)CCNc1nc(-c2ccc(Cl)cc2)nc2ccccc12 — recorded RP-LC retention time = 932

Entry CCOC(=O)C1CCN(C(=O)c2nnc(-c3ccc(S(=O)(=O)N4CCCC4)cc3)o2)CC1 — recorded RP-LC retention time = 881

Entry COc1ccc(-c2csc3c(=O)n(CC(=O)OC(C)C)cnc23)cc1 — recorded RP-LC retention time = 939

Entry CCc1ccc(CN2CCn3c(nn(C)c3=O)C2)cc1 — recorded RP-LC retention time = 689

Entry O=C(COc1ccccc1)Nc1cnc(N2CCOCC2)nc1 — recorded RP-LC retention time = 746

Entry CC(C)C(=O)Nc1ccc(-n2cnc(C(=O)NCC3CCCO3)c2)nc1 (configuration not stated) — recorded RP-LC retention time = 647

1. CCOc1ccc(N2CCn3c2nnc(C(=O)NCC2CCCO2)c3=O)cc1 (configuration not stated)
2. COc1cc(NC(=O)Cn2nc(N3CCCC(C)C3)c3ccccc3c2=O)cc(OC)c1 (configuration not stated)
RP-LC retention time comparison. Which is larger, 1 or 2 ? Let me know the label of the one you choose.
2

###

test: gradient 5% acetonitrile 3 min, to 50% in 2 min, to 85% in 15 min, held 3 min, 100 µL/min; settings: column: Zorbax Extend-C18 2.1 x 50 mm; eluents: water / acetonitrile, 0.1% formic acid
Result type: RP-LC retention time (s)

Entry CCN1C(=O)c2cccnc2Sc2cc(NC(=O)c3ccc(C)cc3C)ccc21 — recorded RP-LC retention time = 918

Entry COC(=O)c1cccc(NC(=O)Nc2ccc3c(c2)N(C(=O)c2ccccc2)CC3)c1 — recorded RP-LC retention time = 921

Entry COc1ccc(-n2ccc(=O)c(-c3nc(-c4cc(OC)cc(OC)c4)no3)n2)cc1 — recorded RP-LC retention time = 887

###

assay: gradient 5% acetonitrile 3 min, to 50% in 2 min, to 85% in 15 min, held 3 min, 100 µL/min; settings: column: Zorbax Extend-C18 2.1 x 50 mm; eluents: water / acetonitrile, 0.1% formic acid
Result type: RP-LC retention time (s)

Some compounds with recorded RP-LC retention time:
Entry Cc1ccc(-c2noc(CN3C(=O)COc4cc(C)ccc43)n2)cc1 — recorded RP-LC retention time = 1130

Entry COC(=O)C1CCN(S(=O)(=O)c2cc3c4c(c2)CCC(=O)N4CCC3)CC1 — recorded RP-LC retention time = 724

Entry c1ccc(-c2nc(C3CC3)no2)c(OC2CNC2)c1 — recorded RP-LC retention time = 614

Entry COCCc1nc(C2CCCN(C(=O)c3sccc3C)C2)n[nH]1 (stereo unspecified) — recorded RP-LC retention time = 590

A. COc1ccccc1N1CCN(c2ncc(C(=O)Nc3ccccc3)c(N)n2)CC1
B. CC(C)Cc1cc(-c2nn3c(-c4cccc(Cl)c4)nnc3s2)n[nH]1
RP-LC retention time comparison. Which is larger, A or B ? Let me know the label of the one you choose.
B
(B: 1080 s, A: 742 s)
